Hi there, I'd appreciate the recorded binding signal for every entry that follows.
Biological target: OsWOX13 (Oryza sativa, UniProt Q5QMM3 1-267)
Sequence: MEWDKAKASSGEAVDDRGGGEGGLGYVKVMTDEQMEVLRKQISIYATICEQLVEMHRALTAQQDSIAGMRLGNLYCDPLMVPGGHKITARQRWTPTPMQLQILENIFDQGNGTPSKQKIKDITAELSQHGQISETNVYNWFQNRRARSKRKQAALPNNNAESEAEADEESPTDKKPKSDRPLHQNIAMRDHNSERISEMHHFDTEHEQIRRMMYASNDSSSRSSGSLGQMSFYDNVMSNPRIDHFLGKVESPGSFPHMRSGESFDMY
Experiment: protein-binding microarray (RPBM); PBS, 2% BSA, 51.3 ng/ul salmon testes DNA, 50 uM zinc acetate, 200 nM TF, 25 C, 1 h; high values mean tight binding
Conditions: protein: recombinant; tags: N-terminal polyhistidine and DsRed monomer fusion (pET32a); label: CyDye5-dUTP incorporated in the synthesized complementary strand; 3' TTTTT single-stranded linker to array surface; dsDNA, one strand shown
Over roughly 35,000 sequences, “fluorescence intensity (a.u.)” has its median near 10,000; the highest 2% begin near 52,000. Only a selection was taken, and the highest values are over-represented in it overall.

SEQUENCE STRING | binding signal
TTATAATTGTAAATTTTACAAATTAGTCCTCACCTGTTCTCGGAGTCACCTAGTGCAG | 53400 fluorescence intensity (a.u.)

Please supply binding signal for each of the following items, keeping them in order.
1. GATAAATTGACAATATTACCAAAATTTTAGTAAGATTGGCCGGAGTCACCTAGTGCAG
2. AATTAAATTAGAGTATTCAGTTTGTATATAGTACATTTGTCGGAGTCACCTAGTGCAG

result:
["64900 fluorescence intensity (a.u.)", "14000 fluorescence intensity (a.u.)"]
